# key: entry, value: pEC50
- Target Under Test: T1, Peptide-25 (cysteine pairing not given here; also: biotinylated (site not given here))
- T1 peptide: VDFCKIYSWPVCHQ
- Assay Remarks: ELISA, Fab on captured biotin-peptide
Where no end group is shown, it is not given here.
Scale explanation: pEC50 corresponds to minus log10 of a concentration expressed in moles per litre.

# count of solved cases: 4
TBD-1 wt (Fab, V domains shown, Fab; the heavy chain entry is VH-CH1; also called wild-type anti-TROP2 Fab (hRS7); TROP2 Fab) VH: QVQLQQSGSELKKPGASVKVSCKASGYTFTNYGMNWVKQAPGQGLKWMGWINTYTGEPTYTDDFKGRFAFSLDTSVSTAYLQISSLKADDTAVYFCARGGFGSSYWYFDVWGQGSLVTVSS VL: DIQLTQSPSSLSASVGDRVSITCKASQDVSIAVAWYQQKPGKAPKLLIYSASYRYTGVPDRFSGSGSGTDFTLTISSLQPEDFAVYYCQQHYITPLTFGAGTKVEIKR	6.66
TBD-6 (LC I93A) (Fab, V domains shown, Fab; also called LC I93A mutant) VH: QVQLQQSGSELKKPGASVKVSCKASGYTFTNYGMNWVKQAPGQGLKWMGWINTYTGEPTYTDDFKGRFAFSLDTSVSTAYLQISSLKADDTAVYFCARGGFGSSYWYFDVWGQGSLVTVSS VL: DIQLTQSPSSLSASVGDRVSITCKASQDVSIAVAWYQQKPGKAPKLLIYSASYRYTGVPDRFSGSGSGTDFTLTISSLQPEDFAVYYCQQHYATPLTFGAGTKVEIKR	7.96
TBD-17 (HC S104A) (Fab, V domains shown, Fab; also called HC S104A mutant) VH: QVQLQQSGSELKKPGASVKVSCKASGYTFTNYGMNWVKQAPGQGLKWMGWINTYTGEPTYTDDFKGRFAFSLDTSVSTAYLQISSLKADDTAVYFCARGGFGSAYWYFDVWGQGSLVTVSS VL: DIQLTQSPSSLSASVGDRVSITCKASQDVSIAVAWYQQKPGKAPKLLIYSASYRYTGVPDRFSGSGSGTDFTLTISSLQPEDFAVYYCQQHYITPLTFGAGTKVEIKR	7.46
TBD-21 (HC F108A) (Fab, V domains shown, Fab; also called HC F108A mutant) VH: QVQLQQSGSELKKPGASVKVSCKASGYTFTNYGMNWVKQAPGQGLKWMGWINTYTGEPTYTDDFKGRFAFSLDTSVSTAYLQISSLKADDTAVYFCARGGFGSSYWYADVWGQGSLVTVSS VL: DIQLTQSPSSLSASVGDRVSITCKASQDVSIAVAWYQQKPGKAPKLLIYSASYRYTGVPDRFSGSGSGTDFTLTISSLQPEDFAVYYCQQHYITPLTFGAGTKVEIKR	7.37

-- ask Given the binder TBD-22 (HC D109A) (Fab, V domains shown, Fab; also called HC D109A mutant) VH: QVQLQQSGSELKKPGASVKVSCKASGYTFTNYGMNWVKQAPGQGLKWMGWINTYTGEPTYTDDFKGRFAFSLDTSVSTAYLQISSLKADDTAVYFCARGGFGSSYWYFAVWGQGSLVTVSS VL: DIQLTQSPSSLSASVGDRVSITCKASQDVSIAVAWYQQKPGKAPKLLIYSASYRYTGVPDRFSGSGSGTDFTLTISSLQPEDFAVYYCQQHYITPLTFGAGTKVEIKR , what is its reported pEC50?
-- reply 8.55
